Target entity: Casein kinase I isoform alpha (Homo sapiens)
Sequence (P48729 whole entry, canonical isoform): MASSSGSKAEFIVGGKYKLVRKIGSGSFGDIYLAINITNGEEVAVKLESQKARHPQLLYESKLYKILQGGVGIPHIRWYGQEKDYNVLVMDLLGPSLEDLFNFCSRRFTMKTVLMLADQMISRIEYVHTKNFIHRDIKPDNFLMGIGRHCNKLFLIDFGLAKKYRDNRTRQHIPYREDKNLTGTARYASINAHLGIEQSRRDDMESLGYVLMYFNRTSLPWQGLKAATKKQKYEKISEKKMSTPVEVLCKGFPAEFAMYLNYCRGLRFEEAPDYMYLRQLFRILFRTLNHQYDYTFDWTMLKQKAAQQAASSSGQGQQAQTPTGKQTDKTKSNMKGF
Test: Inhibition of CK1
pIC50: −log10 of the molar value.
Recorded metric: pIC50

Line notation: O=C(NCc1ccc(O)cc1O)c1ccc2ccc(C(=O)O)c(O)c2n1
pIC50: < 5.00

-- ask For the compound COc1ccc(/C=C/c2ccc3ccc(C(=O)O)c(O)c3n2)cc1O , what pIC50 is on record?
-- reply < 5.00

----------
Below, each entry is listed with its recorded inhibition.
Target entity: Serine/threonine-protein kinase pim-1 (Homo sapiens)
Test: Inhibition of PIM1 at 10 uM
Sequence (P11309 whole entry, looked up): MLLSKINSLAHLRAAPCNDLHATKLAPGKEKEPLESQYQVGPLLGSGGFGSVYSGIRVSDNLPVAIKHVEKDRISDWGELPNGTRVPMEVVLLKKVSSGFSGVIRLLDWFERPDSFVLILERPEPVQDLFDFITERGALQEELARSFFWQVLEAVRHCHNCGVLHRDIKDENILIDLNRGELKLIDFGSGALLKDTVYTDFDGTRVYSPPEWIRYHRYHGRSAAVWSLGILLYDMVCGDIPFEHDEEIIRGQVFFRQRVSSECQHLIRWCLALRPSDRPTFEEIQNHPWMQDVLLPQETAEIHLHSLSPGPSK

Line notation: O=C(O)c1ccc2ccc(/C=C/c3ccc(O)c(O)c3)nc2c1O
Result: > 50%
//
Line notation: O=C(NCc1ccc(O)c(O)c1)c1ccc2c(Cl)cc(Cl)c(O)c2n1
Result: > 50%
//
Line notation: O=C(O)c1ccc(O)c2nc(/C=C/c3ccc(O)c(O)c3)ccc12
Result: < 50%
//
Line notation: O=C(c1ccncc1)c1ccc2ccc(/C=C/c3ccc(O)c(O)c3)nc2c1O
Result: < 50%
//
Line notation: Cc1ccc2cccc(NS(C)(=O)=O)c2n1
Result: > 50%

// next item, inhibition requested
-- ask I have this compound here, Cc1ccc2ccc(C(=O)O)c(O)c2n1 , and I need its recorded inhibition.
-- reply > 50%

----------
Target entity: UniProt:P49759
Sequence (P49759 whole entry): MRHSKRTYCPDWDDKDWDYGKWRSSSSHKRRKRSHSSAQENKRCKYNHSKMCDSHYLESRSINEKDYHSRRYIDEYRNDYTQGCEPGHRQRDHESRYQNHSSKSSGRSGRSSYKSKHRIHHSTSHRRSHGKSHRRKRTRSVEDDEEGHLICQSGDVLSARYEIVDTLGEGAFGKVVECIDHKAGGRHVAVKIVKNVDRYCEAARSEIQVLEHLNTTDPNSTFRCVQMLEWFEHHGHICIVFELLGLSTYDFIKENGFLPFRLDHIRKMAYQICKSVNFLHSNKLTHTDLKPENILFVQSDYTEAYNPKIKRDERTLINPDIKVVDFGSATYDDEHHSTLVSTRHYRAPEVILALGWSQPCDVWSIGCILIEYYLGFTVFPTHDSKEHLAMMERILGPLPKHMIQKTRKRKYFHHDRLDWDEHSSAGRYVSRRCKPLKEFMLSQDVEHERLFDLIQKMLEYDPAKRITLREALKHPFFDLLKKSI
Recorded metric: IC50

-- ask Item O=C(NCc1ccc(O)cc1O)c1ccc2ccc(C(=O)O)c(O)c2n1 has what recorded IC50?
-- reply > 10 µM

----------
Target entity: Cyclin-dependent kinase 5/CDK5 activator 1 (Homo sapiens)
Sequence (Q00535 whole entry): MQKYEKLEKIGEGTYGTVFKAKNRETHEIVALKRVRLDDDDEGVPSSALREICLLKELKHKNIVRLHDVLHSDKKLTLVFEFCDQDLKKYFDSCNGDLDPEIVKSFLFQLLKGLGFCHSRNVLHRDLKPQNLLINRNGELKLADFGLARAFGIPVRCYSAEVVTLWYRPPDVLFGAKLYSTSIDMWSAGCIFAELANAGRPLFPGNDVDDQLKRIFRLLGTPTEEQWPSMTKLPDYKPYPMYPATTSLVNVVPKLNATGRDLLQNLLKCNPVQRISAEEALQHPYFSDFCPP
Sequence (Q15078 whole entry, further chain): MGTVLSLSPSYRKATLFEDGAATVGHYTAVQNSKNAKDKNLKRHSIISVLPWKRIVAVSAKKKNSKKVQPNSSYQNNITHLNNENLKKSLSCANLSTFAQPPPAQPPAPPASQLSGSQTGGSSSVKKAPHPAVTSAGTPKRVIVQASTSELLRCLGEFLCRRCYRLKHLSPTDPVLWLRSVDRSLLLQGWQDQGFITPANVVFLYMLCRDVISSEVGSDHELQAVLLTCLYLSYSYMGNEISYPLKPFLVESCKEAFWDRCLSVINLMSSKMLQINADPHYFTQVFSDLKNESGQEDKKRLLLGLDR
Test: Inhibition of CDK5/P25
pIC50: −log10 of the molar value.
Recorded metric: pIC50

Line notation: COc1ccc(/C=C/c2ccc3ccc(C(=O)O)c(O)c3n2)cc1O
Result: < 5.00

-- ask Could you tell me which pIC50 is on file for O=C(NCc1ccc(O)cc1O)c1ccc2ccc(C(=O)O)c(O)c2n1 ?
-- reply < 5.00

----------
Target entity: Cyclin-dependent kinase 1/cyclin B1 (Homo sapiens)
Sequence (P06493 whole entry): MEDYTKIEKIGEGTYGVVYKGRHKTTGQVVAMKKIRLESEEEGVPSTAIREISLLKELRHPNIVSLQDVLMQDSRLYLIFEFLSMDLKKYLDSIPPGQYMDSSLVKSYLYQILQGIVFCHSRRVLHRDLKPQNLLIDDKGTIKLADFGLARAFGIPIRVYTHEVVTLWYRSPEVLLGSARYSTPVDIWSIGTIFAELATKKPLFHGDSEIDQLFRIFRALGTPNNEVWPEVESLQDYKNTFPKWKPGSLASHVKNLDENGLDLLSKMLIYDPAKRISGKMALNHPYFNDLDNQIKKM
Sequence (P14635 whole entry, further chain): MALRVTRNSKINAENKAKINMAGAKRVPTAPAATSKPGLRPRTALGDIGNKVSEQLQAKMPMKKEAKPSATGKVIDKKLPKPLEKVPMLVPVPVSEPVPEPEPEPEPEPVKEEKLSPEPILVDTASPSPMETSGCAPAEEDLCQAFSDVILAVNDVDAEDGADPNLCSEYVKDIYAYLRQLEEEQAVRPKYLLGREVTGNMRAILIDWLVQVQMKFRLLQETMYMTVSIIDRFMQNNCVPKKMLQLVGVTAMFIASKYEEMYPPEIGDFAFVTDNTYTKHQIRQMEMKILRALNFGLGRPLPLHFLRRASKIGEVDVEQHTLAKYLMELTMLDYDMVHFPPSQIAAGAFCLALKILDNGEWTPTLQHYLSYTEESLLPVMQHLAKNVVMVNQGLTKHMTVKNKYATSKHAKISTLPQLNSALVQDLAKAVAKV
Test: Inhibition of CDK1/cyclin B
Recorded metric: IC50

Line notation: COc1ccc(/C=C/c2ccc3ccc(C(=O)O)c(O)c3n2)cc1O
Target entity: Cyclin-dependent kinase 1/cyclin B1 (Homo sapiens)
Result: > 10 µM

-- ask Endpoint output: IC50 of O=C(NCc1ccc(O)cc1O)c1ccc2ccc(C(=O)O)c(O)c2n1 . Value?
-- reply > 10 µM

----------
// pIC50 collected for Serine/threonine-protein kinase pim-1 (Homo sapiens, UniProt P11309)
pIC50: −log10 of the molar value.
Recorded metric: pIC50

Reference set (5 entries):
Line notation: O=C(O)c1ccc2ccc(/C=C/c3cc(O)c(O)c(O)c3)nc2c1O
Target entity: Serine/threonine-protein kinase pim-1 (Homo sapiens, UniProt P11309)
pIC50: 5.26

Line notation: O=C(O)c1ccc2ccc(/C=C/c3cc(O)cc(O)c3)nc2c1O
Target entity: Serine/threonine-protein kinase pim-1 (Homo sapiens, UniProt P11309)
pIC50: 6.40

Line notation: O=C(O)c1ccc2ccc(/C=C/c3cccc(O)c3O)nc2c1O
Target entity: Serine/threonine-protein kinase pim-1 (Homo sapiens, UniProt P11309)
pIC50: 5.15

Line notation: O=C(O)c1ccc2ccc(/C=C/c3ccc([N+](=O)[O-])cc3)nc2c1O
Target entity: Serine/threonine-protein kinase pim-1 (Homo sapiens, UniProt P11309)
pIC50: 5.47

Line notation: COc1cc(CNC(=O)c2ccc3ccc(C(=O)O)c(O)c3n2)cc(O)c1O
Target entity: Serine/threonine-protein kinase pim-1 (Homo sapiens, UniProt P11309)
pIC50: 5.48

[1] COc1cc(/C=C/c2ccc3ccc(C(=O)O)c(O)c3n2)cc([N+](=O)[O-])c1O
[2] O=C(NCc1cc(O)cc(O)c1)c1ccc2ccc(C(=O)O)c(O)c2n1
-- ask Compare 1 and 2 by numeric pIC50 and name the larger one. Please indicate the selected item by its label.
-- reply 2
(2: 6.22, 1: 5.55)

[1] O=C(NNc1ccc([N+](=O)[O-])cc1[N+](=O)[O-])c1ccc2ccc(C(=O)O)c(O)c2n1
[2] O=C(Nc1ccc(O)c(O)c1)Nc1ccc2ccc(C(=O)O)c(O)c2n1
-- ask Kindly identify the item with the lower pIC50 figure among these two: 1 and 2 Label of pick, please.
-- reply 1

[a] Nc1ccc(/C=C/c2ccc3ccc(C(=O)O)c(O)c3n2)cc1
[b] COc1cc(/C=C/c2ccc3ccc(C(=O)O)c(O)c3n2)ccc1O
-- ask Determine, for a and b , which has the greater value of pIC50. Field: selected label. Fill in the label of the entry you choose.
-- reply b

[P] O=C(O)c1ccc2ccc(/C=C/c3ccc4c(c3)OCO4)nc2c1O
[Q] COc1cc(NC(=O)c2ccc3ccc(C(=O)O)c(O)c3n2)cc(O)c1O
-- ask I'm curious, which of these has a smaller pIC50 number: P or Q ? State your choice using its label.
-- reply P
(P: 5.52, Q: 6.00)

----------
Target entity: Serine/threonine-protein kinase pim-1 (Homo sapiens)
Test: Inhibition of PIM1 at 10 uM
Recorded metric: inhibition

Line notation: O=C(O)c1ccc2ccc(CCc3ccc(O)c(O)c3)nc2c1O
Recorded metric: inhibition
Result: > 50%

-- ask Sample O=C(NCc1ccc(O)cc1)c1ccc2cccc(C(=O)O)c2n1 — what was its inhibition?
-- reply > 50%

-- ask Repeat for the following molecule: O=C(NCc1ccc(O)c(O)c1)c1ccc2ccc(C(=O)O)c(O)c2n1
-- reply > 50%

-- ask Try the molecule Cc1ccc2cccc(C(=O)O)c2n1
-- reply > 50%

-- ask Same lookup for Oc1ccc(/C=C/c2ccc3cccc(O)c3n2)cc1O , please.
-- reply > 50%

-- ask Next: O=C(O)c1cccc2ccc(/C=C/c3ccc(O)c(O)c3)nc12
-- reply > 50%

-- ask Also Cc1ccc2c(-c3ccccc3)cc(C(=O)O)c(O)c2n1 , if possible.
-- reply > 50%

----------
Target entity: Serine/threonine-protein kinase pim-1 (Homo sapiens, UniProt P11309)
Recorded metric: IC50 (µM)

Line notation: O=C(NCc1cccc(O)c1O)c1ccc2ccc(C(=O)O)c(O)c2n1
Recorded number: 2.8

[a] O=C(O)c1cc(/C=C/c2ccc3ccc(C(=O)O)c(O)c3n2)ccc1O
[b] O=C(NCc1ccc(O)c(O)c1)c1ccc2ccc(C(=O)O)c(O)c2n1
-- ask Please indicate which item has the smaller measured IC50: a versus b Your answer should be the label of the entry you select.
-- reply b

----------
Target entity: Serine/threonine-protein kinase pim-1 (Homo sapiens)
Recorded metric: IC50

Line notation: Cc1ccc2ccc(C(=O)O)c(O)c2n1
Recorded metric: IC50
Result: > 10 µM
--
Line notation: O=C(NCc1ccc(O)cc1)c1ccc2cccc(C(=O)O)c2n1
Recorded metric: IC50
Result: > 10 µM

-- ask Lookup: IC50 / Serine/threonine-protein kinase pim-1 (Homo sapiens) / O=C(NCc1ccc(O)c(O)c1)c1ccc2c(Cl)cc(Cl)c(O)c2n1
-- reply > 10 µM
